study-system: Leishmania mexicana CPB (LmCPB) (Leishmania mexicana)
Sequence (P36400 126-443): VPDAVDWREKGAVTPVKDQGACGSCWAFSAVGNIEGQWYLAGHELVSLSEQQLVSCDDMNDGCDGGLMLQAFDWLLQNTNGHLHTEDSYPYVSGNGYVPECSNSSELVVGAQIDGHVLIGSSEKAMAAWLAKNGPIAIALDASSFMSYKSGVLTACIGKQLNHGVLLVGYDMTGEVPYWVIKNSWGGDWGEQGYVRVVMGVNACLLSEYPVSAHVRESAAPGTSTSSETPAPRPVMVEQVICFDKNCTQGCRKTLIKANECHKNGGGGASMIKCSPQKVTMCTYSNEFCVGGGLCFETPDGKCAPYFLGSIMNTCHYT
test-name: LmCPB enzyme inhibition
Assay type: biochemical
measurement-setup: SD lower than 15%; read-out: pKi LmCPB (converted)
Note to self: Ki under 100 nM means criterion met, ties and anything higher get criterion not met.

// known answers, use as guide
structure-notation: CC(C)C[C@@H](C#N)NC(=O)[C@H](Cc1ccccc1)NC(=O)c1cc(C(C)(C)C)nn1C
study-system: Leishmania mexicana CPB (LmCPB) (Leishmania mexicana)
answer-label: criterion met

structure-notation: CC(C)C[C@H](NC(=O)c1ccnc2cc(Cl)ccc12)C(=O)NC1(C#N)CC1
study-system: Leishmania mexicana CPB (LmCPB) (Leishmania mexicana)
answer-label: criterion met

structure-notation: Cn1nc(C(C)(C)C)cc1C(=O)N[C@@H](Cc1ccncc1)C(=O)NC1(C#N)CC1
study-system: Leishmania mexicana CPB (LmCPB) (Leishmania mexicana)
answer-label: criterion not met

Problem: Could you please tell me whether Ki recorded for `CC(C)C[C@H](NC(=O)c1cc(C(C)(C)C)nn1C)C(=O)N[C@H](C#N)[C@@H](C)OCc1ccccc1` is less than 100 nM?
Solution: criterion met

Problem: What do we get for `C[C@@H](OCc1ccccc1)[C@@H](C#N)NC(=O)[C@H](Cc1cccc(Cl)c1)NC(=O)c1cc(C(C)(C)C)nn1C` ?
Solution: criterion not met

Problem: What do we get for `C[C@@H](OCc1ccccc1)[C@@H](C#N)NC(=O)[C@H](Cc1ccccc1)NC(=O)c1cc(C(C)(C)C)nn1C` ?
Solution: criterion not met

----------
# Ki annotations
study-system: recombinant cruzain (Cz) (Trypanosoma cruzi, UniProt P25779)
Sequence (P25779 123-337): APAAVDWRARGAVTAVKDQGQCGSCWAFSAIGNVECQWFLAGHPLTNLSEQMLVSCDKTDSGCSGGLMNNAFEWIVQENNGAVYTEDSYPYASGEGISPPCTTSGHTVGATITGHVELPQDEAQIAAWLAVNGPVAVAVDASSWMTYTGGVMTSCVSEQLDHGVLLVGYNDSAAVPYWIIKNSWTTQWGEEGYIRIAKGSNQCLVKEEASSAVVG
test-name: Cruzain enzyme inhibition
Format: biochemical
measurement-setup: SD lower than 15%; read-out: pKi Cz (converted)
Express the reported value numerically, then name its unit.

Previously resolved entries follow.
compound: C[C@@H](OCc1ccccc1)[C@@H](C#N)NC(=O)[C@H](Cc1ccccc1)NC(=O)c1cc(C(C)(C)C)nn1C
study-system: recombinant cruzain (Cz) (Trypanosoma cruzi, UniProt P25779)
Ki: 501 nM
--
compound: CC(C)CC(C#N)NC(=O)[C@H](Cc1ccccc1)NC(=O)c1cc(C(C)(C)C)nn1C (stereo in doubt)
study-system: recombinant cruzain (Cz) (Trypanosoma cruzi, UniProt P25779)
Ki: 316 nM

Problem: Notebook: pull reported Ki for recombinant cruzain (Cz) (Trypanosoma cruzi, UniProt P25779), entry `N#CC1(NC(=O)[C@H](Cc2c[nH]c3ccccc23)NC(=O)c2ccnc3cc(Cl)ccc23)CC1`
Solution: 631 nM

Problem: What do we get for `CC(C)C[C@@H](C#N)NC(=O)[C@H](Cc1ccccc1)NC(=O)c1cc(C(C)(C)C)nn1C` ?
Solution: 31.6 nM

----------
study-system: recombinant cruzain (Cz) (Trypanosoma cruzi, UniProt P25779)
test-name: Cruzain enzyme inhibition
Assay type: biochemical
measurement-setup: 10 μM; replicates = 2
# remaining activity at 10 µM annotations
Hi! Could you send only the number? It should be in %, unit omitted.

Previously resolved entries follow.
compound: C[C@H](OCc1ccccc1)[C@H](C#N)NC(=O)[C@H](Cc1ccccc1)NC(=O)c1cc(C(C)(C)C)nn1C [Compound 57]
measured-result: 75
--
compound: CC(C)C[C@H](NC(=O)c1cc(C(C)(C)C)nn1C)C(=O)N[C@@H](C#N)[C@H](C)OCc1ccccc1 [Compound 59]
measured-result: 60
--
compound: C[C@@H](O)[C@@H](C#N)NC(=O)[C@H](Cc1ccccc1)NC(=O)c1cc(C(C)(C)C)nn1C [Compound 65]
measured-result: 68

Problem: Notebook: pull reported remaining activity at 10 µM for recombinant cruzain (Cz) (Trypanosoma cruzi, UniProt P25779), entry C[C@@H](O)[C@H](NC(=O)c1cc(C(C)(C)C)nn1C)C(=O)NC1(C#N)CC1 [Compound 19]
Solution: 51

----------
study-system: Human recombinant cathepsin K (Homo sapiens)
Sequence (P43235 115-329): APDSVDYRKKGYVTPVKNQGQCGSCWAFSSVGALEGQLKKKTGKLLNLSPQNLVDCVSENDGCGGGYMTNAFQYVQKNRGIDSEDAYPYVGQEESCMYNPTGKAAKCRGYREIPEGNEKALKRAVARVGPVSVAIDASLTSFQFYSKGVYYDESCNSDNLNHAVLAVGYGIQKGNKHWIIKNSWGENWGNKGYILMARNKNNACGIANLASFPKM
test-name: Cathepsin K assay
Format: biochemical
measurement-setup: SD lower than 15%; read-out: pKi CatK (converted)
# Ki annotations
Hi! Could you send only the number? It should be in nM, unit omitted.

Previously resolved entries follow.
compound: Cn1nc(C(C)(C)C)cc1C(=O)N[C@@H](Cc1ccccc1)C(=O)N[C@H](C#N)Cc1ccncc1
study-system: Human recombinant cathepsin K (Homo sapiens)
endpoint-unit: nM
Ki: 316
--
compound: CC(C)C[C@H](NC(=O)c1ccc(N)nc1)C(=O)NC1(C#N)CC1
study-system: Human recombinant cathepsin K (Homo sapiens)
endpoint-unit: nM
Ki: 10
--
compound: CC(C)C[C@H](NC(=O)c1cnc2[nH]ccc2c1)C(=O)NC1(C#N)CC1
study-system: Human recombinant cathepsin K (Homo sapiens)
endpoint-unit: nM
Ki: 2
--
compound: N#CC1(NC(=O)[C@H](Cc2cccc(Cl)c2)NC(=O)c2ccccc2)CC1
study-system: Human recombinant cathepsin K (Homo sapiens)
endpoint-unit: nM
Ki: 631
--
compound: CC(C)C[C@H](NC(=O)c1cc(C(C)(C)C)nn1C)C(=O)N[C@H](C#N)[C@@H](C)OCc1ccccc1
study-system: Human recombinant cathepsin K (Homo sapiens)
endpoint-unit: nM
Ki: 15.8

Problem: Could you share which Ki value was measured for CC(C)CC(C#N)NC(=O)[C@H](Cc1ccccc1)NC(=O)c1cc(C(C)(C)C)nn1C (stereo in doubt) ?
Solution: 1000

Problem: What do we get for `Cn1nc(C(C)(C)C)cc1C(=O)N[C@@H](Cc1ccccc1)C(=O)N[C@@H](C#N)Cc1ccccc1` ?
Solution: 2510

Problem: What do we get for `N#CC1(NC(=O)[C@H](Cc2ccccc2)NC(=O)c2cccc(OC(=O)c3ccccc3)c2)CC1` ?
Solution: 631

----------
# Ki annotations
study-system: Human recombinant cathepsin K (Homo sapiens, UniProt P43235)
test-name: Cathepsin K assay
Format: biochemical
measurement-setup: SD lower than 15%; read-out: pKi CatK (converted)
Hi! Could you send only the number? It should be in nM, unit omitted.

structure-notation: CC(C)C[C@H](NC(=O)c1ccnc2cc(Cl)ccc12)C(=O)NC1(C#N)CC1
study-system: Human recombinant cathepsin K (Homo sapiens, UniProt P43235)
test-readout: Ki
endpoint-unit: nM
measured-result: 126
--
structure-notation: Cn1nc(C(C)(C)C)cc1C(=O)N[C@@H](Cc1ccccc1)C(=O)N[C@H](C#N)Cc1cccc(Cl)c1
study-system: Human recombinant cathepsin K (Homo sapiens, UniProt P43235)
test-readout: Ki
endpoint-unit: nM
measured-result: 501
--
structure-notation: C[C@@H](OCc1ccccc1)[C@@H](C#N)NC(=O)[C@H](Cc1cccc(Cl)c1)NC(=O)c1cc(C(C)(C)C)nn1C
study-system: Human recombinant cathepsin K (Homo sapiens, UniProt P43235)
test-readout: Ki
endpoint-unit: nM
measured-result: 1000
--
structure-notation: CC(C)C[C@H](NC(=O)c1cc(C(C)(C)C)nn1C)C(=O)N[C@H](C#N)[C@@H](C)O
study-system: Human recombinant cathepsin K (Homo sapiens, UniProt P43235)
test-readout: Ki
endpoint-unit: nM
measured-result: 15.8
--
structure-notation: N#CC1(NC(=O)[C@H](Cc2ccccc2)NC(=O)c2ccccc2)CC1
study-system: Human recombinant cathepsin K (Homo sapiens, UniProt P43235)
test-readout: Ki
endpoint-unit: nM
measured-result: 398
--
structure-notation: CC(C)C[C@H](NC(=O)c1cc(C(C)(C)C)nn1C)C(=O)N[C@@H](C#N)[C@H](C)O
study-system: Human recombinant cathepsin K (Homo sapiens, UniProt P43235)
test-readout: Ki
endpoint-unit: nM
measured-result: 7940

Problem: Notebook: pull reported Ki for Human recombinant cathepsin K (Homo sapiens, UniProt P43235), entry `Cn1nc(C(C)(C)C)cc1C(=O)N[C@@H](Cc1cccc(Cl)c1)C(=O)NC1(C#N)CC1`
Solution: 398

----------
study-system: recombinant cruzain (Cz) (Trypanosoma cruzi, UniProt P25779)
test-name: Cruzain enzyme inhibition
Type: biochemical
measurement-setup: SD lower than 15%; read-out: pKi Cz (converted)
Note to self: Ki under 0.5 µM means t, ties and anything higher get f.

// known answers, use as guide
structure-notation: CC(C)C[C@H](NC(=O)c1cc(C(C)(C)C)nn1C)C(=O)N[C@H](C#N)[C@@H](C)O
study-system: recombinant cruzain (Cz) (Trypanosoma cruzi, UniProt P25779)
answer-label: t
//
structure-notation: C[C@@H](O)[C@@H](C#N)NC(=O)[C@H](Cc1cccc(Cl)c1)NC(=O)c1cc(C(C)(C)C)nn1C
study-system: recombinant cruzain (Cz) (Trypanosoma cruzi, UniProt P25779)
answer-label: t
//
structure-notation: CC(C)C[C@H](NC(=O)c1cc(C(C)(C)C)nn1C)C(=O)N[C@@H](C#N)[C@H](C)O
study-system: recombinant cruzain (Cz) (Trypanosoma cruzi, UniProt P25779)
answer-label: f

Proceed to the following item.
Problem: Could you please tell me whether Ki recorded for `C[C@@H](OCc1ccccc1)[C@@H](C#N)NC(=O)[C@H](Cc1cccc(Cl)c1)NC(=O)c1cc(C(C)(C)C)nn1C` is less than 0.5 µM?
Solution: t
